Kindly supply the reported Morningglory plant response rating values for the records listed here.
tested on: morningglory; test: Test B pre/postemergence morningglory; type: in vivo, Ipomoea hederacea; details: Postemergence, Rate 250 g/ha; scale 0 to 10, 0 no effect, 10 complete control
I only need the number, thanks.

Field request: Morningglory plant response rating | item: `Cc1ccccc1-n1c(=O)on(C(=O)N(c2ccc(Cl)cc2)C(C)C)c1=O` 2

Which measured Morningglory plant response rating value corresponds to `C=CCn1c(=O)on(C(=O)N(c2ccccc2)C(C)C)c1=O` ? 10

Entry `Cc1ccccc1-n1c(=O)on(C(=O)N(C2=CCOCC2)C(C)C)c1=O` has what Morningglory plant response rating? 2
